# Experimental system: Type-1 angiotensin II receptor (Homo sapiens)
# Sequence (P30556 whole entry): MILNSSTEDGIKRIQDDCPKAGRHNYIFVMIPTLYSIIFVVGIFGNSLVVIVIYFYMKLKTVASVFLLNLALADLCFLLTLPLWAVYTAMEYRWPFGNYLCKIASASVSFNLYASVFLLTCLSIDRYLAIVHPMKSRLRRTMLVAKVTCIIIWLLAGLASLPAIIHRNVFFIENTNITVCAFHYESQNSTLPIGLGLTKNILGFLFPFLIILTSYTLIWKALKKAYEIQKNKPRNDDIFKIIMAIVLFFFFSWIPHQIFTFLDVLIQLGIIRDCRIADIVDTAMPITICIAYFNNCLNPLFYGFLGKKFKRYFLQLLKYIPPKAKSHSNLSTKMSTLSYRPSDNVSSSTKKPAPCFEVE
# Assay info: Antagonist activity at type-1 angiotensin 2 receptor (unknown origin) by calcium mobilizing assay
# Format: functional
Measured property: IC50

INSERT INTO measurements (molecule, measured_property, reported) VALUES
  ('CCCCc1nc(C)c(CC(=S)N2CC[C@@H]3CCCC[C@H]32)c(=O)n1Cc1ccc(-c2ccccc2-c2noc(=O)[nH]2)cc1', 'IC50', '70 nM'),
  ('CCCCc1nc(C)c(CC(=S)N2CCOCC2)c(=O)n1Cc1ccc(-c2ccccc2-c2noc(=O)[nH]2)cc1', 'IC50', '5.6 nM'),
  ('CCCCc1nc(C)c(CC(=S)N(C)C)c(=O)n1Cc1ccc(-c2ccccc2-c2nnn[nH]2)cc1 [FIMASARTAN]', 'IC50', '4.5 nM'),
  ('CCCCc1nc(C)c(CC(=S)N2CCCC2)c(=O)n1Cc1ccc(-c2ccccc2-c2noc(=O)[nH]2)cc1', 'IC50', '0.7 nM'),
  ('CCCCc1nc(C)c(CC(=S)N2CCCC2C)c(=O)n1Cc1ccc(-c2ccccc2-c2noc(=O)[nH]2)cc1 (stereo not drawn)', 'IC50', '1.2 nM'),
  ('CCCCc1nc(C)c(CC(=S)N(C)CC(C)C)c(=O)n1Cc1ccc(-c2ccccc2-c2noc(=O)[nH]2)cc1', 'IC50', '2.1 nM'),
  ('CCCCc1nc(C)c(CC(=S)N2CCCCC2)c(=O)n1Cc1ccc(-c2ccccc2-c2noc(=O)[nH]2)cc1', 'IC50', '38 nM'),
  ('CCCCc1nc(C)c(CC(=S)N2Cc3ccccc3C2)c(=O)n1Cc1ccc(-c2ccccc2-c2noc(=O)[nH]2)cc1', 'IC50', '32 nM'),
  ('CCCCc1nc(C)c(CC(=S)N(C)C)c(=O)n1Cc1ccc(-c2ccccc2-c2noc(=O)[nH]2)cc1', 'IC50', '1.6 nM'),
  ('CCCCc1nc(C)c(CC(=S)N2[C@H](C)CC[C@H]2C)c(=O)n1Cc1ccc(-c2ccccc2-c2noc(=O)[nH]2)cc1', 'IC50', '1.8 nM'),
  ('CCCCc1nc(C)c(CC(=S)N(CC)CC)c(=O)n1Cc1ccc(-c2ccccc2-c2noc(=O)[nH]2)cc1', 'IC50', '2 nM'),
  ('CCCc1nc(C)c(CC(=S)N(C)C)c(=O)n1Cc1ccc(-c2ccccc2-c2noc(=O)[nH]2)cc1', 'IC50', '4.7 nM'),
  ('CCCCc1nc(C(C)C)c(CC(=S)N2CCCC2)c(=O)n1Cc1ccc(-c2ccccc2-c2noc(=O)[nH]2)cc1', 'IC50', '2.2 nM');

---

# Assay info: Cmax in rat at 60 mg/kg, po
# Format: ADME, organism-based
# Set-up: dose 60 mg/kg, route oral
# Particulars: in vivo
Measured property: Cmax (ng/mL)

INSERT INTO results (smi, reported) VALUES
  ('CCCCc1nc(C(C)C)c(CC(=S)N2CCCC2)c(=O)n1Cc1ccc(-c2ccccc2-c2noc(=O)[nH]2)cc1', 2570);

---

# Assay info: Stability in human liver microsomes assessed as compound remaining after 30 mins
# Assay type: ADME, microsome
# Particulars: read-out: Stability
Measured property: remaining at 0.5 h (%)

INSERT INTO results (smi, measured_property, reported) VALUES
  ('CCCCc1nc(C(C)C)c(CC(=S)N2CCCC2)c(=O)n1Cc1ccc(-c2ccccc2-c2noc(=O)[nH]2)cc1', 'remaining at 0.5 h', 13);
